These entries and their values trace back to ChEMBL document CHEMBL5058577.

tested on: Fibroblast; assay: Multiplex assay against human fibroblast; format: toxicity, cell-based; settings: 24 h, 10 µM, compound concentration 10 uM, replicate 2
Quick list: Population Membrane Permeable-Phenotype (%) per entry.
parameter_measured: Population Membrane Permeable-Phenotype (%)

[
  {
    "molecule_smiles": "N[C@@]1(C(=O)O)CO[C@H]2[C@H](C(=O)O)[C@H]21",
    "unit_of_measure": "%",
    "value_measured": 2
  },
  {
    "molecule_smiles": "C[C@@H]1C[C@H]2[C@@H]3CCC4=CC(=O)C=C[C@]4(C)[C@@]3(F)[C@@H](O)C[C@]2(C)[C@@]1(O)C(=O)CO",
    "unit_of_measure": "%",
    "value_measured": 10
  },
  {
    "molecule_smiles": "CC1(COc2ccc3c(c2)ncn3-c2ccc3cccc(N4CCC(N)CC4)c3n2)COC1",
    "unit_of_measure": "%",
    "value_measured": 6
  },
  {
    "molecule_smiles": "CC(C)(C)c1ccc(S(=O)(=O)Nc2ccc(Cl)cc2C(=O)c2cc[n+]([O-])cc2)cc1",
    "unit_of_measure": "%",
    "value_measured": 21
  },
  {
    "molecule_smiles": "COc1cc(NC(=O)CCN2CCC(OC(=O)Nc3ccccc3-c3ccccc3)CC2)c(Cl)cc1CNC[C@H](O)c1ccc(O)c2[nH]c(=O)ccc12",
    "unit_of_measure": "%",
    "value_measured": 1
  },
  {
    "molecule_smiles": "C[C@H](NC(=O)c1c(C(F)F)nn(C)c1Oc1cccc(C(F)(F)F)c1)c1ccc(C(=O)O)cc1",
    "unit_of_measure": "%",
    "value_measured": 13
  },
  {
    "molecule_smiles": "c1cc(OCCCN2CCCCC2)ccc1CN1CCCCC1",
    "unit_of_measure": "%",
    "value_measured": 4
  }
]
